Numbers sourced from ChEMBL document CHEMBL2177011.

# ASSAY TARGET: Tumour suppressor p53/oncoprotein Mdm2 (Homo sapiens, UniProt Q00987)
# Sequence (P04637 whole entry): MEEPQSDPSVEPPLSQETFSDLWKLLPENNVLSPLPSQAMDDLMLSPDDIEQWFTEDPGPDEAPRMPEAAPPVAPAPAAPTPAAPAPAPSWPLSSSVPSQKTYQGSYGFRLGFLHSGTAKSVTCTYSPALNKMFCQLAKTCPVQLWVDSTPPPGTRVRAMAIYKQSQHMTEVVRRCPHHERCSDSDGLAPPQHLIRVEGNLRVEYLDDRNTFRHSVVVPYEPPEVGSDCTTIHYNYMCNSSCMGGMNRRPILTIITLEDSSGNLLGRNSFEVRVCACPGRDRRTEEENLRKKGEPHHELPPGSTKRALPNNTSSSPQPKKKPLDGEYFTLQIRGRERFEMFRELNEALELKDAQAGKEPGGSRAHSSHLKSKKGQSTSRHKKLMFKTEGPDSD
# Sequence (Q00987 whole entry): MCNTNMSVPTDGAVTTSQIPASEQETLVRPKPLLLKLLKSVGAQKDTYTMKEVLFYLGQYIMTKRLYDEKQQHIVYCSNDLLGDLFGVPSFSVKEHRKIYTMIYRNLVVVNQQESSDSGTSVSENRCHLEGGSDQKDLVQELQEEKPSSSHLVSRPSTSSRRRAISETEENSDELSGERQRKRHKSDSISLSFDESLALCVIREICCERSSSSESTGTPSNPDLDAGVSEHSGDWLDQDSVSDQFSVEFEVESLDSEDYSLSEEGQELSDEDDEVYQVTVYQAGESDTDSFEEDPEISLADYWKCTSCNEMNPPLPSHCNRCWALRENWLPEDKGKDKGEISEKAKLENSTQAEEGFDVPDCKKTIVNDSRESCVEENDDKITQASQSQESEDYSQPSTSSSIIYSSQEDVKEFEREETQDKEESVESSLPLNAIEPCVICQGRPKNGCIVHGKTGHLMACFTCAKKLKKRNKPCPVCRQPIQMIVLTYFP
# PROTOCOL: Inhibition of p53-MDM2 interaction after 1 hr by fluorescence polarization assay
pKi: −log10 of the molar value.
VALUE TYPE: pKi

As a guide, the following entries are already answered.
• O=C(C1=C(O)C(=O)N(CCCn2ccnc2)C1c1ccc(Cl)cc1Cl)c1ccccc1 (centres undefined) = 4.40
• O=C(C1=C(O)C(=O)N(CCCn2ccnc2)C1c1ccc(F)cc1)c1ccccc1 (centres undefined) = 6.06
• O=C(C1=C(O)C(=O)N(CCc2ccccc2)C1c1ccc(Br)cc1)c1cccs1 (centres undefined) = 4.92
• O=C(C1=C(Nc2ccc(F)cc2)C(=O)N(CCCn2ccnc2)C1c1ccc(Br)cc1)c1ccccc1 (centres undefined) = 6.37
• CC(C)(C)c1ccc(C2C(C(=O)c3ccccc3)=C(O)C(=O)N2CCCn2ccnc2)cc1 (centres undefined) = 4.96
• CCCCOC1=C(C(=O)c2ccccc2)C(c2ccc(Br)cc2)N(CCCn2ccnc2)C1=O (centres undefined) = 6.33
• CCCCCOC1=C(C(=O)c2ccccc2)C(c2ccc(Br)cc2)N(CCCn2ccnc2)C1=O (centres undefined) = 6.47

I. O=C(C1=C(NCc2ccccc2)C(=O)N(CCCn2ccnc2)C1c1ccc(Br)cc1)c1ccccc1 (centres undefined)
II. Cc1cc(C)cc(C2C(C(=O)c3ccccc3)=C(O)C(=O)N2CCCn2ccnc2)c1 (centres undefined)
Query: Please let me know which one, I or II , has a lower measured pKi value. Kindly give the label for the entry you pick.
Reply: II

---

# Tested on: NCI-H1299
# PROTOCOL: Antiproliferative activity against p53 deficient human NCI-H1299 cells after 72 hrs by MTT assay
# Assay type: functional, cell-based
# EXPERIMENTAL PARAMETERS: NCI-H1299, 72 h
pIC50: −log10 of the molar value.
VALUE TYPE: pIC50

Sample answers from the record:
• C[C@@H](NC1=C(C(=O)c2ccccc2)[C@H](c2ccc(Br)cc2)N(CCCn2ccnc2)C1=O)c1ccccc1 = 4.77
• CCCCOC1=C(C(=O)c2ccccc2)C(c2ccc(Br)cc2)N(CCCn2ccnc2)C1=O (stereo not drawn) = 4.77
• O=C(C1=C(Nc2ccc(Br)cc2)C(=O)N(CCCn2ccnc2)C1c1ccc(Br)cc1)c1ccccc1 (stereo not drawn) = 4.72
• Cc1ccc(NC2=C(C(=O)c3ccccc3)C(c3ccc(Br)cc3)N(CCCn3ccnc3)C2=O)cc1 (stereo not drawn) = 4.59
• O=C(C1=C(O)C(=O)N(CCCn2ccnc2)C1c1ccc(Br)cc1)c1ccccc1 (stereo not drawn) = 4.70
• O=C(C1=C(Nc2ccc(OC(F)(F)F)cc2)C(=O)N(CCCn2ccnc2)C1c1ccc(Br)cc1)c1ccccc1 (stereo not drawn) = 4.94

I. O=C(C1=C(NCc2ccccc2)C(=O)N(CCCn2ccnc2)C1c1ccc(Br)cc1)c1ccccc1 (stereo not drawn)
II. O=C(C1=C(Nc2ccccc2Br)C(=O)N(CCCn2ccnc2)C1c1ccc(Br)cc1)c1ccccc1 (stereo not drawn)
Query: Which has the higher pIC50, I or II ? Lab note: record the label of whichever item you select.
Reply: II

---

# Test system: A549
# PROTOCOL: Antiproliferative activity against human A549 cells expressing wild type p53 after 72 hrs by MTT assay
# Format: functional, cell-based
# EXPERIMENTAL PARAMETERS: Homo sapiens, A549, 72 h; read-out: IC50
pIC50: −log10 of the molar value.
VALUE TYPE: pIC50

- O=C(C1=C(Nc2ccccc2)C(=O)N(CCCn2ccnc2)C1c1ccc(Br)cc1)c1ccccc1 (centres undefined): 4.62
- O=C(C1=C(OC2CCCCC2)C(=O)N(CCCn2ccnc2)C1c1ccc(Br)cc1)c1ccccc1 (centres undefined): 4.51

P. CCCCOC1=C(C(=O)c2ccccc2)C(c2ccc(Br)cc2)N(CCCn2ccnc2)C1=O (centres undefined)
Q. O=C(C1=C(NCc2ccccc2)C(=O)N(CCCn2ccnc2)C1c1ccc(Br)cc1)c1ccccc1 (centres undefined)
Query: Hi there! Just curious which has the higher pIC50 between P and Q . # respond with the chosen item's label
Reply: P
(P: 4.73, Q: 4.28)

P. O=C(C1=C(Nc2cccc(Br)c2)C(=O)N(CCCn2ccnc2)C1c1ccc(Br)cc1)c1ccccc1 (centres undefined)
Q. Cc1ccc(NC2=C(C(=O)c3ccccc3)C(c3ccc(Br)cc3)N(CCCn3ccnc3)C2=O)cc1 (centres undefined)
Query: Quick one: lower pIC50, P or Q ? Answer by stating the label of the chosen item.
Reply: Q
